Origin of measurements: PubChem BioAssay

test: reduction of polyQ htt aggregates in cells – imaging, exon1htt(103Q)mCFP cells, high-content imaging, primary screen (AID 483); conditions: exon1htt(103Q)mCFP cell line, aggregate imaging, at 2 µM; measured here: cell count, toxicity;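 also: compound exposure lasted 3 days before fixation; percent of the per-plate median nuclei count of sample wells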
Overview of recorded nuclei count for various compounds
Kindly answer with a numeric value in %, unit omitted.

Below, 2 compounds whose answers are already recorded.
compound	nuclei count / %
Cc1ccc(-c2[nH]nc3c2C(c2ccoc2)C(C#N)=C(N)O3)cc1C (stereo not drawn)	92.5
CCC(=O)Nc1cc(C(=O)NCC2CCCN2CC)c(OC)cc1N(C)C (stereo not drawn)	98.8

May I ask what nuclei count has been recorded for Cc1ccc(S(=O)(=O)C2(C(=O)NC3CCCC3)CC2)cc1 ? 110

----------
assay: inhibitors of TNFa-induced NFkB p65 translocation, primary screen, imaging, HUVEC, MLSMR starter and 10KST1 sets (AID 438); details: HUVEC TNFa-induced p65 nuclear translocation; at 2 µM, stronger effect = higher value, 0% TNFa-plus-vehicle, 100% no-TNFa wells;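 also: compound added about 3h40 before a 20 min TNFalpha stimulation; signal is the nuclear over cytoplasmic p65 intensity ratio per well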
Overview of recorded inhibition for various molecules
Kindly answer with a numeric value in %, unit omitted.

Below, 8 molecules whose answers are already recorded.
molecule	observed
Cc1cc(C(=O)Nc2ccc(S(=O)(=O)Nc3onc(C)c3C)cc2)cs1	-3
COc1ccc(NC(=O)CSc2nc(C)cc(C(F)(F)F)n2)cc1	-3.3
Cc1nc2ccc(F)cc2cc1C(=O)NCC1CCCO1 (stereo not given)	-8.7
CCOC(=O)Nc1ccc2c(c1)N(C(=O)CN(CC)CC)c1ccccc1C=C2	3.3
CN1C(=O)C(O)(CC(=O)c2ccc(F)cc2)c2cc(Br)ccc21 (stereo not given)	6
Cc1ccc(C)c(N2C(=O)CN=C2Nc2ccccc2Cl)c1	14.6
Nc1nc(N)nc(-c2ccccc2)n1	6
CC(=O)Nc1ccc(S(=O)(=O)N2CCSC2c2ccccc2)cc1 (stereo not given)	-12.1

Next molecule, please.
May I ask what inhibition has been recorded for Cc1ccc(Nc2cc(C)nc3ncnn23)c(Cl)c1 ? 7.9

----------
assay: endothelial E-selectin expression blockers – imaging, HUVEC, immunofluorescence, MLSMR starter and 10KST1 sets, primary screen (AID 487); conditions: HUVEC TNFalpha-induced E-selectin immunofluorescence imaging, at 2 µM; stronger effect = higher value;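 also: signal is fraction of cell area covered by stained E-selectin grains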
Overview of recorded inhibition for various molecules
Kindly answer with a numeric value in %, unit omitted.

Below, 2 molecules whose answers are already recorded.
molecule	observed
CCCc1cc(N2CCCC2)n2nc(C)c(-c3ccccc3)c2n1	-22.9
COc1ccc(N=C2C(=O)Nc3ccccc32)cc1	-96.7

May I ask what inhibition has been recorded for CCOC(=O)c1[nH]c2ccc(C)cc2c1NC(=O)CN1CCCCC1 ? -12

Note, next up: O=C(C1CCCN1S(=O)(=O)c1cccc2cccnc12)N1CCn2c1nc1ccccc12 (centres undefined) -28.6

Note, next up: CN1CC(=O)N(CC(=O)NCCc2ccc(F)cc2)c2ccccc2C1=O -1.2

Note, next up: CCOCC(=O)Nc1ccc(S(=O)(=O)N2CCOCC2)cc1 -6.7

Note, next up: CCn1nnc(NC(=O)c2cc3ccccc3o2)n1 -51

Note, next up: Cc1cc(C(F)(F)F)c2c(C)nn(CCc3nn[nH]n3)c2n1 -20

Note, next up: COC(=O)CSc1nnc(CSc2nc(C)cc(C)n2)n1Cc1ccco1 -50.8

Note, next up: COc1ccccc1C(=O)Nc1nc2ccc(S(C)(=O)=O)cc2s1 -32.3

Note, next up: CCc1cc(C)cc(OCCNC(=O)c2ncn[nH]2)c1 31.1

Note, next up: CCCC(=O)Nc1ccccc1NC(=O)CCC -23.8

Note, next up: O=C(Cn1[nH]c(=O)c2ccccc2c1=O)OCC(=O)N1CCCc2ccccc21 -37

Note, next up: COc1ccc(CC(=O)N2CCOCC2)cc1OC -53.3
